These data points were gathered from the METLIN SMRT retention time set (Domingo-Almenara et al. 2019).

experiment: gradient 5% acetonitrile 3 min, to 50% in 2 min, to 85% in 15 min, held 3 min, 100 µL/min; conditions: column: Zorbax Extend-C18 2.1 x 50 mm; eluents: water / acetonitrile, 0.1% formic acid
parameter: RP-LC retention time (s)

INSERT INTO measurements (compound, readoutnumber) VALUES
  ('CN1CCN(C(=O)c2cn(-c3cc(N4CCSCC4)ncn3)cn2)CC1', 593),
  ('COCCNC(=O)C1CCN(c2nc3ccc(-c4ccc(OC)cc4)nc3s2)CC1', 805),
  ('COc1cc(NC(=O)C2=C(C)OCCS2)c(Cl)cc1C(=O)N1CCN(c2ccccn2)CC1', 668),
  ('CCOC(=O)CNC(=O)N1CCCC1c1ccc(OC)cc1 (stereo not drawn)', 728),
  ('CNC(=O)c1csc2c1CCCCC2', 787);

1 = O=C(c1ccn2c(-c3ccccc3Br)nnc2c1)N1CCN(c2ccccn2)CC1
2 = COc1ccc(CC(C)(O)CNC(=O)c2cc(Br)ccc2Cl)cc1 (stereo not drawn)
**Q:** Please indicate which entry, 1 or 2 , has the lower recorded RP-LC retention time value. Label of pick, please.
**A:** 1
